Taken from patent US20220106391A1.

This listing pairs binders with measured Kd.
Molecular target: T1, canine beta-NGF (cNGF) (canine, UniProt Q29074 110-229 (pig entry))
T1 construct: also called canine NGF; can NGF
T1 chain: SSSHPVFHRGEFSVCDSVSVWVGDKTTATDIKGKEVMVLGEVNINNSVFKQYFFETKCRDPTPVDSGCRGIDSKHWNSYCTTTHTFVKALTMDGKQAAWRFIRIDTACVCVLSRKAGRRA
Assay: SPR (Biacore)
measured.quantity: Kd (nM)

| binder | reading.unit | assay.result |
| --- | --- | --- |
| H3A02B4L1AL1 (antibody, V domains shown, Caninized IgG) VH: EVQLVESGGDLARPGGSLKLSCVVSGFTLTQYGINWVRQAPGKGLQWVTVIWATGATDYNSALKSRFTVSRDNAMNTVYLQMNSLRVEDTAVYYCARDGWWYATSWYFDVWGQGTLVTVSS VL: EIVMTQSPASLSLSQEEKVTITCKASQDINHYLNWYQQKPGQAPKLLIYYTSRLHSGVPSRFSGSGSGTDFSFTISSLEPEDVAVYYCQQGNMFPYTFGGGT | nM | 2 |
| H3AQC2301B12L5AL2 (antibody, V domains shown, Caninized IgG) VH: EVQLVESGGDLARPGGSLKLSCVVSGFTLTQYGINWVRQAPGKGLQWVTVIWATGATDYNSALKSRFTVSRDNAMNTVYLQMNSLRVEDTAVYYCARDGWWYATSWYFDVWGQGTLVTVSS VL: DIVMTQTPLSLSVSPGEPASISCRASQDISNYLNWFRQKPDGTVKLLIYYTSSLHSGVPSRFSGSGSGTDFTLRISRVEADDAGVYYCQQGSTLPRTFGQGT | nM | 12.5 |
| H3AQC2301B12LC (antibody, V domains shown, Caninized IgG, light chain QC2301B12VK) VH: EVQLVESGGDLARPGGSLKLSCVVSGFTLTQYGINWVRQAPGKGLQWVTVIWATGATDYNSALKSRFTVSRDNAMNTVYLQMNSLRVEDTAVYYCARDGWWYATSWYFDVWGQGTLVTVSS VL: DIVMTQTPLSLSVSPGEPASISCRASQDISNYLNWFRQKPDGTVKLLIYYTSRLHSGVPSRFSGSGSGTDFTLRISRVEADDAGVYYCQQGSTLPRTFGQGT | nM | 1.13 |
| H3A02B4VL1 (antibody, V domains shown, Caninized IgG) VH: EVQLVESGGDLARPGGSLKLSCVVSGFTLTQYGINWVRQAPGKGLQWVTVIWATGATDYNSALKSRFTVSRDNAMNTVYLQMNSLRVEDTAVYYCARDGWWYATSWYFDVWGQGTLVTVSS VL: EIVMTQSPASLSLSQEEKVTITCRASQDISNYLNWYQQKPGQAPKLLIYYTSRLHSGVPSRFSGSGSGTDFSFTISSLEPEDVAVYYCQQGNMFPYTFGGGT | nM | 0.16 |
| H3AQC2301B12L2AL1 (antibody, V domains shown, Caninized IgG) VH: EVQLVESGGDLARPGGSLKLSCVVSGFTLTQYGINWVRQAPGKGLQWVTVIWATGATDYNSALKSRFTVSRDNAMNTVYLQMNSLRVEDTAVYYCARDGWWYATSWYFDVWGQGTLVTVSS VL: DIVMTQTPLSLSVSPGEPASISCKASQSINHYLNWFRQKPDGTVKLLIYYTSRLHSGVPSRFSGSGSGTDFTLRISRVEADDAGVYYCQQGSTLPRTFGQGT | nM | 0.435 |
